Reference for the values: patent US20120135923A1

Biological target: T1, hMC1-R (human, UniProt Q01726 1-317)
T1 construct: whole, on cells; Assayed as membranes of CHO-K1 cells expressing the receptor; also called hMC-R receptor subtype 1; melanocyte-specific receptor (MC1-R)
T1 sequence (Q01726 whole entry): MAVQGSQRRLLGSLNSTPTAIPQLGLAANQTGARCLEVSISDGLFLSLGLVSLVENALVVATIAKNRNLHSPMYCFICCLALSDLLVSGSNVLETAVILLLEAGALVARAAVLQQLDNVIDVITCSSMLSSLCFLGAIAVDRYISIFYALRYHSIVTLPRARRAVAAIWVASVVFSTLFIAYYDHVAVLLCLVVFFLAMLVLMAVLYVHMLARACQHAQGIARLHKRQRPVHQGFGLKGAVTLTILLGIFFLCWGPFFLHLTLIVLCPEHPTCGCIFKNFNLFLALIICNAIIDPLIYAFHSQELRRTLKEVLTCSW
Experiment: competition with [125I]-NDP-α-MSH, CHO-K1 membranes
Bridge positions count the residues as written; N and C are the ends. Square brackets hold non-standard residues; d marks the D form. 2Nal = N[C@@H](Cc1ccc2ccccc2c1)C(=O)O; d2Nal = N[C@H](Cc1ccc2ccccc2c1)C(=O)O; Pen = CC(C)(S)[C@H](N)C(=O)O; Nle = CCCC[C@H](N)C(=O)O; Ava = NCCCCC(=O)O; GABA = NCCCC(=O)O
# note: exactly 2 nM is not below, so it is Criterion not met; use Criterion met for Ki strictly under it

binder	label value
Ac-[Nle]CHFR[dW][GABA]C-NH2 (disulfide 2-8, Phe 4 is the L form here) [Ac-Nle-c(Cys-His-Phe-Arg-D-Trp-Gaba-Cys)-NH2]	Criterion not met
Ac-C[dA]H[dF]R[2Nal]AC-NH2 (disulfide 1-8; SMILES CC(=O)N[C@H]1CSSC[C@@H](C(N)=O)NC(=O)[C@H](C)NC(=O)[C@H](Cc2ccc3ccccc3c2)NC(=O)[C@H](CCCNC(=N)N)NC(=O)[C@@H](Cc2ccccc2)NC(=O)[C@H](Cc2c[nH]cn2)NC(=O)[C@@H](C)NC1=O) [Ac-c(Cys-D-Ala-His-D-Phe-Arg-2-Nal-Ala-Cys)-NH2]	Criterion not met
Ac-[2Nal]CH[dF]RW[GABA]C-NH2 (disulfide 2-8) [Ac-2-Nal-c(Cys-His-D-Phe-Arg-Trp-Gaba-Cys)-NH2]	Criterion met
Ac-[Nle]DH[d2Nal]RWAK-NH2 (lactam 2-8) [Ac-Nle-c(Asp-His-D-2-Nal-Arg-Trp-Ala-Lys)-NH2]	Criterion met
Ac-[Nle]C[dL]H[dF]RWC-NH2 (disulfide 2-8; SMILES CCCC[C@H](NC(C)=O)C(=O)N[C@H]1CSSC[C@@H](C(N)=O)NC(=O)[C@H](Cc2c[nH]c3ccccc23)NC(=O)[C@H](CCCNC(=N)N)NC(=O)[C@@H](Cc2ccccc2)NC(=O)[C@H](Cc2c[nH]cn2)NC(=O)[C@@H](CC(C)C)NC1=O) [Ac-Nle-c(Cys-D-Leu-His-D-Phe-Arg-Trp-Cys)-NH2]	Criterion met
Ac-RCH[dF]RW[GABA][Pen]-NH2 (disulfide 2-8; SMILES CC(=O)N[C@@H](CCCNC(=N)N)C(=O)N[C@H]1CSSC(C)(C)[C@@H](C(N)=O)NC(=O)CCCNC(=O)[C@H](Cc2c[nH]c3ccccc23)NC(=O)[C@H](CCCNC(=N)N)NC(=O)[C@@H](Cc2ccccc2)NC(=O)[C@H](Cc2c[nH]cn2)NC1=O) [Ac-Arg-c(Cys-His-D-Phe-Arg-Trp-Gaba-Pen)-NH2]	Criterion met
Ac-C[dA]H[dF]RWAC-NH2 (disulfide 1-8) [Ac-c(Cys-D-Ala-His-D-Phe-Arg-Trp-Ala-Cys)-NH2]	Criterion not met
Ac-[Nle]C[dA]H[dF]RW[Ava]C-NH2 (disulfide 2-9; SMILES CCCC[C@H](NC(C)=O)C(=O)N[C@H]1CSSC[C@@H](C(N)=O)NC(=O)CCCCNC(=O)[C@H](Cc2c[nH]c3ccccc23)NC(=O)[C@H](CCCNC(=N)N)NC(=O)[C@@H](Cc2ccccc2)NC(=O)[C@H](Cc2c[nH]cn2)NC(=O)[C@@H](C)NC1=O) [Ac-Nle-c(Cys-D-Ala-His-D-Phe-Arg-Trp-Apn-Cys)-NH2]	Criterion met
